Exercise: for every item that follows, state its recorded Kd.
molecular target: T1, human BACE1 ECD; assay: Octet, pH 5.0
T1 construct: analyte of the Octet assay (200 nM) and enzyme of the first short substrate assay; also called human BACE1 extracellular domain
T1 sequence (single chain, as listed by the source limits assumed): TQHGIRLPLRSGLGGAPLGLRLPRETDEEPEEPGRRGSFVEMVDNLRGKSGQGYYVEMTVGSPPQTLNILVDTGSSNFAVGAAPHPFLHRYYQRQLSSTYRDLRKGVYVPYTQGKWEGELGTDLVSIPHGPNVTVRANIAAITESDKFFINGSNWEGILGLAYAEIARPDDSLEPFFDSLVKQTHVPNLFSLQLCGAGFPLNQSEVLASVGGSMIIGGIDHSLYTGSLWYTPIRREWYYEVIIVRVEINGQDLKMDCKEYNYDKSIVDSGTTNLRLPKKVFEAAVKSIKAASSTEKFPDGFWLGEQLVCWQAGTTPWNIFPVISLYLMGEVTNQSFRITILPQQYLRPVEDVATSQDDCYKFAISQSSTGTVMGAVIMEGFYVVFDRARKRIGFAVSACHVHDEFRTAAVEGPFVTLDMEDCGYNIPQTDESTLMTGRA
Numbers only, in nM.

Example cases with answers are listed next.
Binder | Kd, nM
5572 (antibody, V domains shown, anti-BACE1 IgG) VH: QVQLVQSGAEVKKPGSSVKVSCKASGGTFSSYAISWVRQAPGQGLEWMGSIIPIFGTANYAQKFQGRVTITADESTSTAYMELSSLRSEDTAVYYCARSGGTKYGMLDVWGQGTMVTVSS VL: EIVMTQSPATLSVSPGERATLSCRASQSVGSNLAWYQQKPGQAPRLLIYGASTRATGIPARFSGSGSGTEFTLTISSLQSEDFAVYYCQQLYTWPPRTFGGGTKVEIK | 1.5
5875 (antibody, V domains shown, anti-BACE1 IgG) VH: EVQLLESGGGLVQPGGSLRLSCAASGFTFSTYAMGWVRQAPGKGLEWVSATSGSGGSTYYADSVKGRFTISRDNSKNTLYLQMNSLRAEDTAVYYCAKGGSQWLYAPGSWFDPWGQGTLVTVSS VL: EIVLTQSPATLSLSPGERATLSCRASQSVSSYLAWYQQKPGQAPRLLIYDASNRATGIPARFSGSGSGTDFTLTISSLEPEDFAVYYCVQRSNFPWTFGGGTKVEIK | 50
5571 (antibody, V domains shown, anti-BACE1 IgG) VH: QVQLVQSGAEVKKPGSSVKVSCKASGGTFSSYAISWVRQAPGQGLEWMGNIIPIFGTANYAQKFQGRVTITADESTSTAYMELSSLRSEDTAVYYCARSGGTKYGMLDVWGQGTVVTVSS VL: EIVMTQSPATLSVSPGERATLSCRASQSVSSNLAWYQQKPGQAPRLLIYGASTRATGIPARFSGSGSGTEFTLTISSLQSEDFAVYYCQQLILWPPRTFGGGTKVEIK | 8.2
5884 (antibody, V domains shown, anti-BACE1 IgG) VH: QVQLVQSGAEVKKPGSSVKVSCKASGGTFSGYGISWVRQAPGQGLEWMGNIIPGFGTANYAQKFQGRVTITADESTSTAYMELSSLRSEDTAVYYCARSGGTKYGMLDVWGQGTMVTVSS VL: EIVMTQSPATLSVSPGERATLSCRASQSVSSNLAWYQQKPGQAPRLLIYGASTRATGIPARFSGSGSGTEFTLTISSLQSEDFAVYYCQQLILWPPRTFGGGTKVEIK | 1.4
5747 (antibody, V domains shown, anti-BACE1 IgG) VH: QLQLQESGPGLVKPSETLSLTCTVSGGSISSSSYYWGWIRQPPGKGLEWIGNIYYSGSTYYNPSLKSRVTISVDTSKNQFSLKLSSVTAADTAVYYCARLGHGYSYFDLWGRGTLVTVSS VL: EIVLTQSPATLSLSPGERATLSCRASQSVSSYLAWYQQKPGQAPRLLIYDASNRATGIPARFSGSGSGTDFTLTISSLEPEDFAVYYCQQVYLWPPRTFGGGTKVEIK | 3
5260 (antibody, V domains shown, anti-BACE1 IgG) VH: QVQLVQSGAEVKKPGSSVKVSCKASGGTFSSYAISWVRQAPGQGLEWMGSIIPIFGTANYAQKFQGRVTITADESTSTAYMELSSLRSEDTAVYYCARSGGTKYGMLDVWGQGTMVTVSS VL: EIVMTQSPATLSVSPGERATLSCRASQSVGSNLAWYQQKPGQAPRLLIYGASTRATGIPARFSGSGSGTEFTLTISSLQSEDFAVYYCQQAVVWPPRTFGGGTKVEIK | 120
5883 (antibody, V domains shown, anti-BACE1 IgG) VH: QVQLVQSGAEVKKPGSSVKVSCKASGGTFSSYAISWVRQAPGQGLEWMGGIIPIGGGANYAQKFQGRVTITADESTSTAYMELSSLRSEDTAVYYCARSGGTKYGMLDVWGQGTMVTVSS VL: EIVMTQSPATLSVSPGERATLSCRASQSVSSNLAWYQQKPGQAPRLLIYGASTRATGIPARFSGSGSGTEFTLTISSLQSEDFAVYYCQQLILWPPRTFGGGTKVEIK | 8.7
5878 (antibody, V domains shown, anti-BACE1 IgG) VH: EVQLLESGGGLVQPGGSLRLSCAASGFTFSSYAMSWVRQAPGKGLEWVSAISGSGISTPYADSVKGRFTISRDNSKNTLYLQMNSLRAEDTAVYYCAKGAGHGSYVKGWFDPWGQGTLVTVSS VL: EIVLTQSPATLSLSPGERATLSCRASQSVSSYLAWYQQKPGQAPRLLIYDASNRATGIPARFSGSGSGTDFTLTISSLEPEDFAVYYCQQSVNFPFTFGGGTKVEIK | 11

Hi! Can you tell me Kd for each of these binders?
1. 5536 (antibody, V domains shown, anti-BACE1 IgG) VH: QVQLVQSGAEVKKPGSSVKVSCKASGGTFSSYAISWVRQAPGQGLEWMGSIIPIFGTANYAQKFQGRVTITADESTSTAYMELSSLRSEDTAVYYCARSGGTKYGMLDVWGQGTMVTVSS VL: EIVMTQSPATLSVSPGERATLSCRASQSVGSNLAWYQQKPGQAPRLLIYGASTRATGIPARFSGSGSGTEFTLTISSLQSEDFAVYYCQQSYLWPPRTFGGGTKVEIK
2. 5644 (antibody, V domains shown, anti-BACE1 IgG) VH: QLQLQESGPGLVKPSETLSLTCTVSGGSISSSSYYWGWIRQPPGKGLEWIGSIYYSGSTYYNPSLKSRVTISVDTSKNQFSLKLSSVTAADTAVYYCARVGHGISYFDLWGRGTLVTVSS VL: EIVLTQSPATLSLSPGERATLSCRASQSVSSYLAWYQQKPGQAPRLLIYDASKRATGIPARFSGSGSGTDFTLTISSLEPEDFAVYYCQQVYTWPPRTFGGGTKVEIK
3. 5880 (antibody, V domains shown, anti-BACE1 IgG) VH: EVQLLESGGGLVQPGGSLRLSCAASGFTFGSYAMTWVRQAPGKGLEWVSAISGSGISTPYADSVKGRFTISRDNSKNTLYLQMNSLRAEDTAVYYCAKGAGHGSYVKGWFDPWGQGTLVTVSS VL: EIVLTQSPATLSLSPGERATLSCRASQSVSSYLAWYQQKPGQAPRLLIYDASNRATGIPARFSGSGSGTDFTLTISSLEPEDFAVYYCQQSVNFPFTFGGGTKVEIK

Reply:
17
12
4.5
